Recorded values, source patent US20260183275A1.

target: human TLR9 (Homo sapiens)
run-description: TLR9 inhibition reporter assay (HEK-Blue cells, SEAP reporter)
condition-parameters: HEK-Blue cells overexpressing human TLR9; stimulated with ODN2006 5 nM; SEAP read after 22 hour; dose range 0.05 nM-50 μM
pIC50: −log10 of the molar value.
parameter: pIC50

>>> reported_measurement("CC(=O)Nc1ccc(-c2cc3cc(-c4ccc(C5CCN(C(C)C)CC5)cc4)ccc3[nH]c2=O)cc1")
6.51
>>> reported_measurement("CC(C)N1CCN(c2ccc(-c3ccc4[nH]c(=O)c(-c5ccccc5C(F)(F)F)cc4c3)cc2)CC1")
6.52
>>> reported_measurement("CCCn1c(=O)c(-c2ccc(S(C)(=O)=O)cc2)cc2cc(-c3ccc(C4CCN(C(C)C)CC4)cc3)ccc21")
6.53

[a] CC(C)N1CCC(c2ccc(-c3ccc4[nH]c(=O)c(-c5ccc(NS(C)(=O)=O)cc5)cc4c3)cc2)CC1
[b] CC(C)N1CCC(c2ccc(-c3ccc4[nH]c(=O)c(-c5ccc(S(N)(=O)=O)cc5)cc4c3)cc2)CC1
// query I'm curious, which of these has a smaller pIC50 number: a or b ? Indicate which entry you chose by stating its label.
// result a

---

target: human TLR9 (Homo sapiens, UniProt Q9NR96)
Sequence (Q9NR96 26-1032): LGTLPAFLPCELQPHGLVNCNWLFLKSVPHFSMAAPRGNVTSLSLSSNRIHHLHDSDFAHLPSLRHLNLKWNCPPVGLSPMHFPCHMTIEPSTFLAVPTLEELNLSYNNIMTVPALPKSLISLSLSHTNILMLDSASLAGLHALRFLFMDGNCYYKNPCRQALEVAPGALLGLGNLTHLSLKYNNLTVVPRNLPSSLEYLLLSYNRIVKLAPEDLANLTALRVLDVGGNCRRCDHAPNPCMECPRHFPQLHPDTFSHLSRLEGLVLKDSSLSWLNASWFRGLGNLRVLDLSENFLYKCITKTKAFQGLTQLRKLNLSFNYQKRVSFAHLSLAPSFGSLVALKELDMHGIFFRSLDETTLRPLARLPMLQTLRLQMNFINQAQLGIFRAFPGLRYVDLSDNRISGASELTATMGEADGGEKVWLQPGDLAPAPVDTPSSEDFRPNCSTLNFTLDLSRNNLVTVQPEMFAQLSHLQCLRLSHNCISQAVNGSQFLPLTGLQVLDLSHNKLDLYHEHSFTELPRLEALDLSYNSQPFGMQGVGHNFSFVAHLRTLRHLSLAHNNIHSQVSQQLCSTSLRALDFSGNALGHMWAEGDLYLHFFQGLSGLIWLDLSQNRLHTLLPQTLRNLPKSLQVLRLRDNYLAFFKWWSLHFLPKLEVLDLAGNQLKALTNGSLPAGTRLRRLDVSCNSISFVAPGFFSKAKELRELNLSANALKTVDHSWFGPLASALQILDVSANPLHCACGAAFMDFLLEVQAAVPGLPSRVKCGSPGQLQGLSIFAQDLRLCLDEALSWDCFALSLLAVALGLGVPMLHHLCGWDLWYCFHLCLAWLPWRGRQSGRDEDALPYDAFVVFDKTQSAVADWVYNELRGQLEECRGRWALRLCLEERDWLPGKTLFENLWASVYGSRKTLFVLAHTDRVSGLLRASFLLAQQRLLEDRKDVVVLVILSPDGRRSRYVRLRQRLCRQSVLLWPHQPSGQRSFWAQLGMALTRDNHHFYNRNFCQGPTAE
run-description: TLR9 inhibition reporter assay (HEK-Blue cells, SEAP reporter)
condition-parameters: HEK-Blue cells overexpressing human TLR9; stimulated with ODN2006 5 nM; SEAP read after 22 hour; dose range 0.05 nM-50 μM
pIC50: −log10 of the molar value.
parameter: pIC50

The following compounds have reported results that may help.
>>> reported_measurement("CC(C)N1CCN(c2ccc(-c3ccc4[nH]c(=O)c(-c5cc(F)ccc5F)cc4c3)cc2)CC1")
6.69
>>> reported_measurement("CC(C)N1CCN(c2ccc(-c3ccc4[nH]c(=O)c(-c5ccccc5)cc4c3)cc2)CC1")
6.72
>>> reported_measurement("CC(C)N1CCN(c2ccc(-c3ccc4[nH]c(=O)c(-c5c(Cl)cccc5Cl)cc4c3)cc2)CC1")
6.44
>>> reported_measurement("CC(C)N1CCN(c2ccc(-c3ccc4[nH]c(=O)c(-c5ccc(Cl)cc5Cl)cc4c3)cc2)CC1")
6.42
>>> reported_measurement("CC(=O)Nc1ccc(-c2cc3cc(-c4ccc(N5CCN(C(C)C)CC5)cc4)ccc3n(C)c2=O)cc1")
6.21

[P] CC(C)N1CCN(c2ccc(-c3ccc4c(c3)cc(-c3ccc(NC(=O)c5ccccn5)cc3)c(=O)n4C)cc2)CC1
[Q] CC(C)N1CCN(c2ccc(-c3ccc4[nH]c(=O)c(-c5ccc(N6CCCC6=O)cc5)cc4c3)cc2)CC1
[R] CC(C)N1CCC(c2ccc(-c3ccc4c(c3)cc(-c3ccc(S(C)(=O)=O)cc3)c(=O)n4C)cc2)CC1
// query Order the entries by their reported pIC50, beginning at the minimum. Returns: the labels arranged in the requested order.
// result Q, P, R
(Q: 6.40, P: 6.62, R: 7.15)

---

target: human TLR7 (Homo sapiens)
Sequence (Q9NYK1 27-1049): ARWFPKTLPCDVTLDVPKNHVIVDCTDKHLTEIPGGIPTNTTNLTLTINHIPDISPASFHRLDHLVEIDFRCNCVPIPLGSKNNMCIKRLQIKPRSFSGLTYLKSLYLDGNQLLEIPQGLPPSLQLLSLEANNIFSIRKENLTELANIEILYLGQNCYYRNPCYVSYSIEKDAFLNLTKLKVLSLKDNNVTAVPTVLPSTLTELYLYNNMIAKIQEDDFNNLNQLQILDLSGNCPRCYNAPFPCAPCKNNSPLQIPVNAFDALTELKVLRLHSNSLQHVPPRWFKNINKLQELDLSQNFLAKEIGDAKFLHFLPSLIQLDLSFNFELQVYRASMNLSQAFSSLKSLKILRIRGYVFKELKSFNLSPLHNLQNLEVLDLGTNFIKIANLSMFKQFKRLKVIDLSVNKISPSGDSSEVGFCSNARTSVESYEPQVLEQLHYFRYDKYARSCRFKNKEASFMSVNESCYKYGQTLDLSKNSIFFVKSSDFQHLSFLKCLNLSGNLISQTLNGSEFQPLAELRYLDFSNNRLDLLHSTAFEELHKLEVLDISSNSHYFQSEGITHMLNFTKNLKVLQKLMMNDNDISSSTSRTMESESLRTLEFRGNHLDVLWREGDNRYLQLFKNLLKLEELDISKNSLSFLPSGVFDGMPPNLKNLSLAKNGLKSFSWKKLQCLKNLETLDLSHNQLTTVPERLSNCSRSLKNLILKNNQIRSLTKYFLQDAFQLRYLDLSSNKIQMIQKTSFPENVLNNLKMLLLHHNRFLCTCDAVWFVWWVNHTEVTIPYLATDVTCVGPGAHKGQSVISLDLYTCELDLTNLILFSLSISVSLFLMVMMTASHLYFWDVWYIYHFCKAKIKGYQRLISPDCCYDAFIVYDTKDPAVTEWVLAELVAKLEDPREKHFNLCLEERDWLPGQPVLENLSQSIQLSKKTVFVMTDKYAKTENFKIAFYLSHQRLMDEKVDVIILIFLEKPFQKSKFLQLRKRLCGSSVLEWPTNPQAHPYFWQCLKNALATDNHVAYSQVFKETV
run-description: TLR7 inhibition reporter assay (HEK-Blue cells, SEAP reporter)
condition-parameters: HEK-Blue cells overexpressing human TLR7; stimulated with gardiquimod 7.5 μM; SEAP read after 22 hour; dose range 0.05 nM-50 μM
pIC50: −log10 of the molar value.
parameter: pIC50

>>> reported_measurement("CC(=O)Nc1ccc(-c2cc3cc(-c4ccc(N5CCN(C(C)C)CC5)cc4)ccc3n(C)c2=O)cc1 [Example 57]")
5.91
>>> reported_measurement("CC(C)N1CCN(c2ccc(-c3ccc4[nH]c(=O)c(-c5cncnc5)cc4c3)cc2)CC1 [Example 34]")
5.97
